# System: T1, MERS-CoV (NCoV/Novel coronavirus) Spike Protein S1 Protein (aa 1-725, His Tag) (Sino 40069-V08B1) (MERS-CoV, UniProt K9N5Q8 18-725)
# T1 sequence: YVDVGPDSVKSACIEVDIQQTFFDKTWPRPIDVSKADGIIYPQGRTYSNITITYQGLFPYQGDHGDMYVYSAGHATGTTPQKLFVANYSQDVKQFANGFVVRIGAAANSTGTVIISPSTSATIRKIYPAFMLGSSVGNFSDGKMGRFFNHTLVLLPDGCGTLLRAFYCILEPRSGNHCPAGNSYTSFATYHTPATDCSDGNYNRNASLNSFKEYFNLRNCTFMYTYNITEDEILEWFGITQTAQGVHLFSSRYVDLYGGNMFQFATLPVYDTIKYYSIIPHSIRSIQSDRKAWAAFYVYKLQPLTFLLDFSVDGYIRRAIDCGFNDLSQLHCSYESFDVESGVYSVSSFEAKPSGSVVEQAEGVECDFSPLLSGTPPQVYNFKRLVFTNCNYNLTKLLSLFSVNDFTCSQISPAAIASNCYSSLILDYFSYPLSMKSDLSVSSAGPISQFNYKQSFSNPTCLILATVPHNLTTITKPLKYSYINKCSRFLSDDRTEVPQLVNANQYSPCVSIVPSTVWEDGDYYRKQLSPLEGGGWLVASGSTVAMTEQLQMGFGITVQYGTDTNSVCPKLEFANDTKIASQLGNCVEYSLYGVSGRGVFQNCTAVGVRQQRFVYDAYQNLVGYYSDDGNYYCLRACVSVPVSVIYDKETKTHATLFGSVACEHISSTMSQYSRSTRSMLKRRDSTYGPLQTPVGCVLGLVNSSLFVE
# Experiment Notes: Luminex bead assay, supernatant
The threshold is 20 MFI. Values of Binding signal (MFI) beneath it are tagged Fulfilled; values meeting or exceeding it are tagged Not fulfilled.

[
  {
    "Binder": "mAb10957 (antibody, V domains shown) VH: EVQLVESGGGLVQPGGSLRLSCAASGVTVSSNYMSWVRQAPGKGLEWVSVIYSGGSTFYADSVKGRFTISRDNSKNTLFLQMNSLRIEDTAVYYCARDLGPYGMDVWGQGTTVTVSS VL: DIQLTQSPSFLSASVGDRVTITCRASQGISSYLAWYQQKPGKAPKLLIYAASTLQSGVPSRFSGSGSGTQFILTISSLQPEDFATYYCQQLNSYPGFTFGPGTKVDIKR",
    "Category": "Fulfilled"
  },
  {
    "Binder": "mAb10985 (antibody, V domains shown) VH: EVQLVESGGGLVQPGRSLRLSCAASGFTFDDYAMHWVRQAPGKGLEWVSGISWNRGSIGYADSVKGRFTISRDNAKNSLYLQMSSLRAEDTALYYCAKDGERWDSVVVPSARNGMDVWGQGTTVTVSS VL: QSVLTQPPSVSGAPGQRVTISCTGSSSNIGAGYDVHWYQQLPGTAPKLLIYGNSNRPSGVPDRFSGSKSGTSASLAITGLQAEDEADYYCQSYDSSLSGSYVFGTGTKVTVLG",
    "Category": "Not fulfilled"
  },
  {
    "Binder": "mAb10914 (antibody, V domains shown) VH: EVQLVESGGGLVQPGGSLRLSCAASGLIVSRNYMIWVRQAPGKGLEWVSVIYSGGSTFYADSVKGRFTISRHNSKNTLYLQMNSLRAEDTAVYYCARDLGTGGMDVWGQGTTVTVSS VL: DIQLTQSPSFLSASVGDRVTITCWASQGISSYLAWYQQKPGKAPKLLIYAASTLQSGVPSRFSGSGSGTEFTLTISSLQPEDFATYYCQQLNSYPLTFGGGTKVEIKR",
    "Category": "Not fulfilled"
  },
  {
    "Binder": "mAb10964 (antibody, V domains shown) VH: QVQLQESGPGLVKPSETLSLTCTVSGGSINNYYWIWIRQPPGKGLEWIGYIYHSGSTNYNPSLKSRVTISVDTSKNQFSLKVSSVTAADTAVYYCANMVRGVYEDDYWGQGTLVTVSS VL: DIQMTQSPSSLSASVGDRVTITCRASQSISNYLNWYQQKPGKAPKLLIFAASSLRSGVPSRFSGSGSGTDFTLTISSLHPEDFATYYCQQNYNTPLTFGPGTKVDIKR",
    "Category": "Fulfilled"
  },
  {
    "Binder": "mAb10913 (antibody, V domains shown) VH: EVQLVESGGGLVQPGGSLRLSCAASGFTFRNYEMNWVRQAPGKGLEWVSYITSSGSTMYYADSVKGRFTISRDNAKNSLYLQMNSLRAEDTAVYYCARDGFYYYYAMDVWGQGTTVTVSS VL: QSVLTQPPSVSAAPGQKVTISCSGSSSNIGNNYVSWYQQLPGTAPKLLIYDNNKRPSGIPDRFSGSKSGTSATLGITGLQTGDEADYYCGTWDSSLSVGRVFGTGTKVTVLG",
    "Category": "Not fulfilled"
  }
]
